target: CD74 on CD74 positive SU-DHL-6 cells, P04233; assay: cell-based or functional assay
Sequence (P04233 whole entry): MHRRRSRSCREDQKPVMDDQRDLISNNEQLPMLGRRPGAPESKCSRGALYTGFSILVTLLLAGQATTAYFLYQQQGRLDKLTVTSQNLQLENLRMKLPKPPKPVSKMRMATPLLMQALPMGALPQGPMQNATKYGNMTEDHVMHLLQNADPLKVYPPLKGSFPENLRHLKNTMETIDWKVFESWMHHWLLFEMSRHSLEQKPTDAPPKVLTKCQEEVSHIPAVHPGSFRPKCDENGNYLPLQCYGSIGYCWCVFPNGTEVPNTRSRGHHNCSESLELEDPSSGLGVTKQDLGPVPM
property_label: 2nd ADC Cell Killing IC50 (pM)
Answers are plain numbers, in pM.

Previously resolved entries follow.
{"columns": ["binder", "unit_abbreviation", "2nd ADC Cell Killing IC50"],
 "data": [
  ["1251-B08 heavy chain paired with VL SEQ ID NO: 272 (antibody, V domains shown) VH: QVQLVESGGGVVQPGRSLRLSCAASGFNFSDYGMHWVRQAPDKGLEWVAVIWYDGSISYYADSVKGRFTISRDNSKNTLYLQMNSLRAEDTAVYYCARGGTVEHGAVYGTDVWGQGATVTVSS VL: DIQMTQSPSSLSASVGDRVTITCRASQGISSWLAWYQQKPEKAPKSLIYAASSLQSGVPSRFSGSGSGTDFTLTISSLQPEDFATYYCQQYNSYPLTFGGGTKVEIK", "pM", 7],
  ["1251-F07 heavy chain paired with VL SEQ ID NO: 272 (antibody, V domains shown) VH: QVQLVESGGGVVQPGRSLRLSCAASGFTFSSHGMHWVRQAPDKGLEWVAVIWDDGSNEVYADSVKGRFTISRDNSKNTLYLQMNSLRAEDTAVYYCARGGTRIRGLRYGTDVWGQGTTVTVSS VL: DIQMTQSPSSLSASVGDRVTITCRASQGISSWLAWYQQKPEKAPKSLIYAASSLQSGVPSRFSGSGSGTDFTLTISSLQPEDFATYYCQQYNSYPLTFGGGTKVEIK", "pM", 9]
]}

// next item, 2nd ADC Cell Killing IC50 requested
[in] // returns reported 2nd ADC Cell Killing IC50 for input 1337-A04 light chain paired with VH 1251-A06 (SEQ ID NO: 236) (Fab, V domains shown) VH: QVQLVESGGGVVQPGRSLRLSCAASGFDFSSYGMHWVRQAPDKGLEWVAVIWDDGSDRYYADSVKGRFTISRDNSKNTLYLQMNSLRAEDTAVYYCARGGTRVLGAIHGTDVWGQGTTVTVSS VL: DIQMTQSPSSLSASVGDRVTITCRASQDIGRWVAWYQQKPEKAPKSLIYGASSLQSGVPSRFSGSGSGTDFTLTISSLQPEDFATYYCQQYNTYPLTFGGGTKVEIK
[out] 4
